- ASSAY NAME: Mouse PK studies (plasma and liver exposure)
- Assay type: in vivo, C57BL/6 mice
- DETAILS: male, C57BL/6N, mouse, plasma, po, 100 mg/kg, plasma, PO 100 mg/kg in 0.5% methocell, mice, individual subject; read-out: AUC Extrap
MEASURE: AUC (µM·h)
One number for each entry, in µM·h.

Briefly, AUC measured for Nc1ccc(C(=O)Nc2cc(F)c(F)c(F)c2)cc1S(N)(=O)=O [Example E3] : 172

* * *

- ASSAY NAME: Mouse PK studies (plasma and liver exposure)
- Assay type: in vivo, C57BL/6 mice
- DETAILS: male, C57BL/6N, mouse, plasma, po, 100 mg/kg, 0.5 Hours, PO 100 mpk in 0.5% methocell, individual subject; read-out: Plasma concentrations
MEASURE: concentration at 0.5 h (µM)
Numbers only, in µM.

The compound listed as Nc1ccc(C(=O)Nc2cc(F)c(F)c(F)c2)cc1S(N)(=O)=O has a reported concentration at 0.5 h of 7.77
